Assay: Acute toxicity determination, oral LD50 by method of BEHRENS and KARBER
Details: mouse, in vivo, female Swiss mice, 48 hours observation
In this section, each of the compounds is paired with its reported LD50 at 48 h.
// note: answer is a bare numeric in mg/kg

Solved cases (3 shown):
>>> number("C=CCNc1ccc(C(C)C(=O)O)cc1 (centres unmarked)")
1780
>>> number("C=C(C)CNc1ccc(CC(=O)O)cc1")
1780
>>> number("CC(C(=O)O)c1ccc(NCc2ccccc2)cc1 (centres unmarked)")
880

The measured LD50 at 48 h associated with CC(C)Nc1ccc(C(C)C(=O)O)cc1 (centres unmarked) reads 2400

The measured LD50 at 48 h associated with CCCCNc1ccc(C(C)C(=O)O)cc1 (centres unmarked) reads 1200

The measured LD50 at 48 h associated with CCNc1ccc(C(C)C(=O)O)cc1 (centres unmarked) reads 2400

The measured LD50 at 48 h associated with `O=C(O)Cc1ccc(NCc2ccccc2)cc1` reads 2400

The measured LD50 at 48 h associated with `C=CCNc1ccc(CC(=O)O)cc1` reads 1550

---

Experiment: Acute toxicity determination, oral LD50 by method of BEHRENS and KARBER
Details: mouse, in vivo, female Swiss mice, 48 hours observation
In this section, each of the compounds is paired with its reported LD50 at 48 h.
// note: answer is a bare numeric in mg/kg

Solved cases (3 shown):
>>> number("C=C(C)CNc1ccc(CC(=O)OCC)cc1 [ethyl p-methallylaminophenylacetate, Ethyl p-methallylaminophenylacetate]")
2400
>>> number("CCCCNc1ccc(CC(=O)O)cc1 [p-n-butylaminophenylacetic acid, p-n-Butylaminophenylacetic acid]")
1200
>>> number("C=C(C)CNc1ccc(C(C)C(=O)OC)cc1.Cl (stereo not drawn)")
2400

# context switch: different compound, same LD50 at 48 h
The measured LD50 at 48 h associated with COc1ccc2c(c1)c(CC(=O)O)c(C)n2C(=O)c1ccc(Cl)cc1 [indometacine, reference compound] reads 50

---

Test: Acute toxicity determination, oral LD50 by method of BEHRENS and KARBER
Details: mouse, in vivo, female Swiss mice, 48 hours observation
Experimental: Acute toxicity tests were carried out with lots of 10 female mice of "Swiss" strain, weighing from 19 to 21 g. The means lethal dose (LD50) by the oral route was determined by means of the method of BEHRENS and KARBER after keeping the animals under observation during 48 hours. In this table are also set forth the LD50 of acetylsalicylic acid and of indometacine used as reference materials.
OBSERVABLE: LD50 at 48 h (mg/kg)
// note: answer is a bare numeric in mg/kg

>>> number("C=CCNc1ccc(CC(=O)OCC)cc1 [ethyl p-allylaminophenylacetate, Ethyl para-allylaminophenylacetate]")
2400

The measured LD50 at 48 h associated with `C#CCNc1ccc(CC(=O)O)cc1` reads 2910

The measured LD50 at 48 h associated with C=CCNc1ccc(C(C)C(=O)[O-])cc1.[Li+] (centres unmarked) reads 2910

The measured LD50 at 48 h associated with CCCNc1ccc(C(C)C(=O)O)cc1 (centres unmarked) reads 2400

The measured LD50 at 48 h associated with `CC(C)Nc1ccc(CC(=O)O)cc1` reads 2400
